The reported measurements were obtained from patent US8969325B2.

Listing of entries alongside the reported pIC50.
molecular target: UniProtKB Q8NER1; assay: Capsaicin Activation Assay (intracellular Ca2+, FLIPR); details: recombinant HEK293 cells expressing hTRPV1, 50 nM capsaicin
# pIC50: negative log10 of molar concentration; output just the value

Illustrative cases are given below, each with its answer.
CN1C(=O)CCc2ccc(NC(=O)N[C@@H]3CC(C)(C)Oc4nc(C(F)(F)F)ccc43)cc21 [Example 295]
7.00
CCC1(CC)C[C@@H](NC(=O)Nc2cccc3c2CNC(=O)N3C)c2cccc(F)c2O1 [Example 139]
7.92
CN1C(=O)CCc2ccc(NC(=O)N[C@H]3CCOc4cc(OC(F)(F)F)ccc43)cc21 [Example 276]
7.36
O=C(Nc1ccc2c(c1)NC(=O)N(CCO)C2)N[C@H]1CC2(CCC2)Oc2ccc(F)cc21 [Example 56]
6.15
CCCC1(CCC)C[C@@H](NC(=O)Nc2ccc3c(c2)N(C)C(=O)CC3)c2cc(F)ccc2O1 [Example 266]
7.19
CCC1(CC)C[C@@H](NC(=O)Nc2ccc3c(c2)NC(=O)N(C)C3)c2ccc(C(F)(F)F)cc2O1 [Example 180]
6.64
CCCC1(CCC)C[C@@H](NC(=O)Nc2ccc3c(c2)NC(=O)N(CCO)C3)c2cccc(F)c2O1 [Example 311]
6.82
CCC1(CC)C[C@@H](NC(=O)Nc2ccc3c(c2)NC(=O)N(CCO)C3)c2ccc(C(F)(F)F)cc2O1 [Example 46]
6.44

Measured pIC50, CN1C(=O)CCc2ccc(NC(=O)N[C@@H]3CC(CF)(CF)Oc4ccccc43)cc21 [Example 280] : 6.02

* * *

molecular target: human TRPV1 (Homo sapiens (Human)); experiment: Capsaicin Activation Assay (intracellular Ca2+, FLIPR); settings: recombinant HEK293 cells expressing hTRPV1, 50 nM capsaicin
Recorded IC50 values for a group of compounds are listed next.
Dear colleague, please return just the value in nM, with no unit written.

Answered cases to consult:
O=C(Nc1ccc2c(c1)NC(=O)N(CCO)C2)N[C@@H]1CCOc2ccccc21
68
Cn1c(=O)ccc2c(NC(=O)N[C@@H]3CC(CF)(CF)Oc4ccc(F)cc43)cccc21
29

Measured IC50, "CN1C(=O)CCc2ccc(NC(=O)N[C@@H]3CC(C)(C)Oc4cc(Cl)ccc43)cc21" : 4200

IC50 for "O=C1CCc2ccc(NC(=O)N[C@@H]3CCc4cc(C(F)(F)F)ccc43)cc2N1" is 4

The compound listed as "C[C@]1(C(F)(F)F)C[C@@H](NC(=O)Nc2ccc3c(c2)NC(=O)CC3)c2ccccc2O1" shows IC50 equal to 7

Reported IC50 of "CN1Cc2ccc(NC(=O)N[C@@H]3CC(C)(C)Oc4c3ccc(F)c4Cl)cc2NC1=O" : 210

The measured IC50 associated with "Cn1c(=O)ccc2c(NC(=O)N[C@@H]3CCc4cc(Cl)ccc43)cccc21" reads 8

IC50 for "CN1C(=O)CCc2ccc(NC(=O)N[C@@H]3CC(CF)(CF)Oc4cc(F)ccc43)cc21" is 130

* * *

target: human TRPV1 (Homo sapiens (Human), UniProt Q8NER1); test: Acid Activation Assay (pH 5.0, intracellular Ca2+, FLIPR); type: cell-based; settings: percentage of the maximal pH 5.0-induced response remaining; recombinant HEK293 hTRPV1 cells; maximum concentration tested 37.5 μM
Sequence (Q8NER1 whole entry): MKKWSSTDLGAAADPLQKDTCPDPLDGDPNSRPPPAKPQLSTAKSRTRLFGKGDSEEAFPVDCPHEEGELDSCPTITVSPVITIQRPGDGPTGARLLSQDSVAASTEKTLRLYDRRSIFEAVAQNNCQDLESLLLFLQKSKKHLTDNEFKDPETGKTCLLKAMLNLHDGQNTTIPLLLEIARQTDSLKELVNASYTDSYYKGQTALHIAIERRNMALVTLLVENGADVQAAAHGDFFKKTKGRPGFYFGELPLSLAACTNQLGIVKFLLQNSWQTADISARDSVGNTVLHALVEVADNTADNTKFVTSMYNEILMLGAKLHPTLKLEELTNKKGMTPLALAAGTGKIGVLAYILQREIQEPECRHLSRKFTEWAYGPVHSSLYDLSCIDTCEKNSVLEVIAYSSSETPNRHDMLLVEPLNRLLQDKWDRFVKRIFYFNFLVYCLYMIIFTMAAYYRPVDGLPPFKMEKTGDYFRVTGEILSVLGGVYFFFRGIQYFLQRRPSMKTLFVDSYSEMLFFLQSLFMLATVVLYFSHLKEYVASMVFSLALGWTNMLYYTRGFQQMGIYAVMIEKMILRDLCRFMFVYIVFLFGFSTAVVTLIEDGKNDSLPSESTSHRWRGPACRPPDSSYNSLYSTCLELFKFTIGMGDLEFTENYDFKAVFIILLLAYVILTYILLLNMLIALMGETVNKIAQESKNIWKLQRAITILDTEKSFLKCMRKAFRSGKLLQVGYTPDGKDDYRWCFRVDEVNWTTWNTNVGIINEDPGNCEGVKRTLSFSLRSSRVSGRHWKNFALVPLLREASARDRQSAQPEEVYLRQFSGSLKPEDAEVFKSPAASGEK
measuredParameter: human TRPV1 H^+ (max % remain) (%)
Response body: numeric value in %, unit text excluded.

O=C1COc2ccc(NC(=O)N[C@@H]3CCOc4c3cccc4C(F)(F)F)cc2N1
103

Proceeding to the next compound to report its human TRPV1 H^+ (max % remain).
Field human TRPV1 H^+ (max % remain) (entry "O=C1CCc2ccc(NC(=S)N[C@@H]3CC(CF)(CF)Oc4cc(Cl)ccc43)cc2N1" ) reads 48

* * *

target: human TRPV1 (Homo sapiens (Human), UniProt Q8NER1); experiment: Capsaicin Activation Assay (intracellular Ca2+, FLIPR); settings: recombinant HEK293 cells expressing hTRPV1, 50 nM capsaicin
pIC50: −log10 of the molar value.
Use TRUE when the recorded pIC50 is no lower than 7; use FALSE when it is lower.

C[C@@]1(C(F)(F)F)C[C@@H](NC(=O)Nc2ccc3c(c2)NC(=O)CC3)c2ccccc2O1
FALSE
CCCC1(CCC)C[C@@H](NC(=O)Nc2ccc3c(c2)NC(=O)N(CCO)C3)c2cc(F)ccc2O1
FALSE
CC1(C)C[C@@H](NC(=O)Nc2ccc3c(c2)NC(=O)CC3)c2ccc(F)c(F)c2O1
TRUE
COCCN(C)C1Cc2ccc(NC(=O)N[C@@H]3CC(CF)(CF)Oc4cc(Cl)ccc43)cc2NC1=O (some centres unmarked)
FALSE
Cn1c(=O)ccc2c(NC(=O)N[C@@H]3CCc4cc(C(C)(C)C)ccc43)cccc21
TRUE

# check: pIC50 of "CC1(C)C[C@@H](NC(=O)Nc2ccc3c(c2)NC(=O)CC3)c2ccc(Cl)c(F)c2O1" is greater than or equal to 7 TRUE

Determine whether this molecule has pIC50 no lower than 7: "O=C1CCc2ccc(NC(=O)N[C@H]3CC(CF)(CF)Oc4cc(Cl)ccc43)cc2N1" FALSE

Is the recorded value of pIC50 equal to or greater than 7 for this molecule? "CCC1(CC)C[C@@H](NC(=O)Nc2cccc3c2CNC(=O)N3C)c2cc(F)ccc2O1" TRUE

Dear colleague, could you confirm whether "O=C1COc2ccc(NC(=O)N[C@@H]3CC(CF)(CF)Oc4cc(C(F)(F)F)ccc43)cc2N1" has pIC50 at or above 7? TRUE

Please tell me: is the molecule "Cn1c(=O)ccc2c(NC(=O)N[C@@H]3CC(CF)(CF)Oc4c(F)cc(F)cc43)cccc21" at or over 7 in terms of pIC50? TRUE

* * *

molecular target: human TRPV1 (Homo sapiens (Human), UniProt Q8NER1); experiment: Capsaicin Activation Assay (intracellular Ca2+, FLIPR); assay type: cell-based; conditions: recombinant HEK293 cells expressing hTRPV1, 50 nM capsaicin
measuredParameter: pIC50
// field semantics: pIC50 = negative decimal log of concentration (mol/L)

Past entries and their recorded results:
CCC1(CC)C[C@@H](NC(=O)Nc2ccc3c(c2)NC(=O)N(CCO)C3)c2cccc(F)c2O1
7.19
O=C(Nc1ccc2c(c1)NC(=O)C(N1CCOCC1)C2)N[C@@H]1CC(CF)(CF)Oc2cc(Cl)ccc21 (some centres unmarked)
7.21
O=C1COc2ccc(NC(=O)N[C@@H]3CC4(CCC4)Oc4ccc(F)cc43)cc2N1
6.62
CN1C(=O)CCc2ccc(NC(=O)N[C@@H]3CC(CF)(CF)Oc4ccc(F)cc43)cc21
6.42

Record "CCC1(CC)C[C@@H](NC(=O)Nc2ccc3c(c2)NC(=O)CC3)c2cccc(F)c2O1" . Reported pIC50: 7.49

The recorded pIC50 for entry "CN1C(=O)NCc2c(NC(=O)N[C@@H]3CCOc4ccccc43)cccc21" equals 5.92

# pIC50 of "CCC1(CC)C[C@@H](NC(=O)Nc2cccc3c2ccc(=O)n3C)c2ccc(C(F)(F)F)cc2O1" = 7.26

Briefly, pIC50 measured for "CN1C(=O)NCc2c(NC(=O)N[C@@H]3CCOc4cc(C(F)(F)F)ccc43)cccc21" : 7.38

* * *

biological target: human TRPV1 (Homo sapiens (Human)); test: Acid Activation Assay (pH 5.0, intracellular Ca2+, FLIPR); type: cell-based; conditions: percentage of the maximal pH 5.0-induced response remaining; recombinant HEK293 hTRPV1 cells; maximum concentration tested 37.5 μM
measuredParameter: human TRPV1 H^+ (max % remain) (%)
The figure you give is taken to be in %; do not add the unit.

Examples from the recorded data:
CN1Cc2ccc(NC(=O)N[C@@H]3CC(C)(C)Oc4nc(C(F)(F)F)ccc43)cc2NC1=O
55
CN1Cc2c(NC(=O)N[C@@H]3CC(CF)(CF)Oc4cc(Cl)ccc43)cccc2N(C)C1=O
5
CCCC1(CCC)C[C@@H](NC(=O)Nc2cccc3c2CNC(=O)N3C)c2cccc(F)c2O1
67

Moving on to another compound below.
Summary for this compound, "O=C(Nc1ccc2c(c1)NC(=O)N(CCO)C2)N[C@@H]1CC(CF)(CF)Oc2ccc(F)cc21" : human TRPV1 H^+ (max % remain) is 8

* * *

tested on: rats; test: Sodium iodoacetate-induced knee joint osteoarthritic pain model (hind limb grip force); type: in vivo; conditions: rat; 10 mg/kg, po; single acute dose; 1 hour after administration; 20 days after sodium iodoacetate; read-out: % effect (% return to normalcy of hind limb grip force)
measuredParameter: inhibition in vivo at 10 mg/kg

Answered cases to consult:
O=C1COc2ccc(NC(=O)N[C@@H]3CC(CF)(CF)Oc4cc(C(F)(F)F)ccc43)cc2N1 [Example 324]
67%
CCC1(CC)C[C@@H](NC(=O)Nc2ccc3c(c2)NC(=O)CC3)c2cccc(F)c2O1 [Example 222]
26%

Below: the item to evaluate.
Notebook: C[C@]1(C(F)F)C[C@@H](NC(=O)Nc2ccc3c(c2)NC(=O)CO3)c2ccc(Cl)cc2O1 [Example 321] , inhibition in vivo at 10 mg/kg read as 31%
